From: patent EP4725969A1

- tested-system: T1, recombinant human HER2 extracellular domain protein (human, UniProt P04626 23-652)
- T1 construct: range 23-652; Range is printed for the immunogen/panning protein; also called ErbB2; recombinant HER2 protein
- assay-comment: BLI, Protein A capture
Would you mind telling me the reported Kd of each entry?
Give just the number in nM; leave the unit off.

Task item: Give the measured Kd of 2126-Hu-H45 (antibody, IgG1, V domains shown, IgG1/Cκ) VH: QVQLVQSGSELKKPGASVKVSCKASGYTFTDYSMHWVRQAPGQGLEWMGWINTETGEPTYADDFKGRFVFSLDTSVSTAYLQMSSLKAEDTAVYFCVRVGRYDYAMDYWGQGTTVTVSS VL: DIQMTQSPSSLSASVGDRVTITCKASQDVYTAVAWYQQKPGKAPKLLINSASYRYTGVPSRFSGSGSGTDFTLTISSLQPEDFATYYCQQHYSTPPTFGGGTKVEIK .
Reply: 5.76

Task item: Give the measured Kd of 2126-Hu-H48 (antibody, IgG1, name in Kabat numbering, V domains shown, IgG1/Cκ) VH: QVQLVQSGSELKKPGASVKVSCKASGYTFTDYSMHWVRQAPGQGLEWMGWINTETGEPTYADDFKGRFVFSLDTSVSTAYLQISSLKAEDTAVYFCVRVGKYDYAMDYWGQGTTVTVSS VL: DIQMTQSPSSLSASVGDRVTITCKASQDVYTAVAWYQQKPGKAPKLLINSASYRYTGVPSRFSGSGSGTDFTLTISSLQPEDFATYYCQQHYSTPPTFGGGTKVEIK .
Reply: 34.1

Task item: Give the measured Kd of 2126-Hu-H55 (antibody, IgG1, name in Kabat numbering, V domains shown, IgG1/Cκ) VH: QVQLVQSGSELKKPGASVKVSCKASGYTFTDYSMHWVRQAPGQGLEWMGWINTETGEPTYADDFKGRFVFSLDTSVSTAYLQISSLKAEDTAVYFCVRVGRYAYAMDYWGQGTTVTVSS VL: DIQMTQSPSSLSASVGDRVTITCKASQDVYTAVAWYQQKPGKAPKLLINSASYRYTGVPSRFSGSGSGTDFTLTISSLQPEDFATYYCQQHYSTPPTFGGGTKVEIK .
Reply: 33.7
